B1: PDS5B (parent)
chain: ITYPPGVKEISDKISKEEMVRRLK

Variants of: B1
Assay: protein stability index of a GFP-peptide fusion (GPS, HEK-293T) (PSI 1-6); higher = more stable;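 also: lentivirally expressed fusions sorted by FACS into six bins by GFP to DsRed ratio, PSI derived from sequencing read proportions per bin multiplied by bin number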
Conditions: c terminus: a fixed tail appended
test_readout: protein stability index

Look at this variant and give its reported protein stability index. ITYPPGVKEISDKISKEEMVRRLE
4.38

Look at this variant and give its reported protein stability index. ITYPPGVKEISDKISKEEMVRTLK
4.41

Look at this variant and give its reported protein stability index. ITYPPGVKEISDKISKEEVVRRLK
4.65

Look at this variant and give its reported protein stability index. ITYPPGVKEISDKISKEEMVRRLW
2.72

Look at this variant and give its reported protein stability index. ITYPPHVKEISDKISKEEMVRRLK
4.18

Look at this variant and give its reported protein stability index. ITYPPGVKKISDKISKEEMVRRLK
3.66

Look at this variant and give its reported protein stability index. ILYPPGVKEISDKISKEEMVRRLK
4.14

Look at this variant and give its reported protein stability index. ITYPPGVKEIFDKISKEEMVRRLK
3.3

Look at this variant and give its reported protein stability index. ITYRPGVKEISDKISKEEMVRRLK
3.43

Look at this variant and give its reported protein stability index. ITYPPGVKEIEDKISKEEMVRRLK
4.04

Look at this variant and give its reported protein stability index. ITYPPGVKEISDKISKEEMVRLLK
2.28

Look at this variant and give its reported protein stability index. ITYPPGVKEESDKISKEEMVRRLK
4.38

Look at this variant and give its reported protein stability index. ITYPPGVKEISDKISFEEMVRRLK
3

Look at this variant and give its reported protein stability index. ITYPPGVKEISDKICKEEMVRRLK
3.23

Look at this variant and give its reported protein stability index. ITYPPGVKEISDKISKEEMVRRLI
3.04

Look at this variant and give its reported protein stability index. ITYPKGVKEISDKISKEEMVRRLK
3.74

Look at this variant and give its reported protein stability index. ITYPPGVKEISDKISKEQMVRRLK
4.15

Look at this variant and give its reported protein stability index. ITYPPGVKEISDKISKEEMWRRLK
3.38

Look at this variant and give its reported protein stability index. ITYPPGVKESSDKISKEEMVRRLK
4.53

Look at this variant and give its reported protein stability index. ITYPPGVKEISDKISKETMVRRLK
4.12

Look at this variant and give its reported protein stability index. ITYPPGVKEISCKISKEEMVRRLK
3.03

Look at this variant and give its reported protein stability index. ITYHPGVKEISDKISKEEMVRRLK
3.91
